Reported pKi values are given for each entry in this list.
SYSTEM NAME: JNK3 (Homo sapiens)
Construct: One such construct encodes amino acid residues Ser40-Glu402 of JNK3α1 and is preceded by Met and Gly residues; Met-Gly (initiation methionine plus glycine added for the NcoI site)
PROTOCOL NOTES: JNK inhibition assay: spectrophotometric coupled-enzyme assay with activated JNK3
STATED CONDITIONS: activated JNK3 10 nM, 10 μM ATP, 200 μM EGF receptor peptide, 30° C., competitive inhibition model
pKi: −log10 of the molar value.

>>> df
                                   molecule  experimental_readout  value_measured
0  O=C1/C(=N\O)c2cc(Cl)ccc2N1Cc1cc(F)cc2c1OCCO2                   pKi          > 6.00
1  COc1ccccc1-c1nc(CN2C(=O)/C(=N\O)c3cc(C)cc(C)c32)no1                   pKi          ≤ 6.00
2  O=C1/C(=N\O)c2c(Cl)cc(Cl)cc2N1Cc1cc(F)cc2c1OCOC2                   pKi          > 6.00
3  O=C(NCC1CCCO1)c1ccc2c(c1)N(Cc1cc(F)cc3c1OCOC3)C(=O)/C2=N\O (stereo not shown)                   pKi          ≤ 6.00
4  O=C(Nc1ccc2c(c1)N(Cc1cc(F)cc3c1OCOC3)C(=O)/C2=N\O)c1ccccc1                   pKi          > 6.00

For the next question, use this molecule.
# lookup: pKi of `O=C1/C(=N\O)c2c(C#Cc3ccccc3)cccc2N1Cc1cc(F)cc2c1OCOC2`
≤ 6.00

###

SYSTEM NAME: JNK3 (Homo sapiens, UniProt P53779)
Construct: One such construct encodes amino acid residues Ser40-Glu402 of JNK3α1 and is preceded by Met and Gly residues; Met-Gly (initiation methionine plus glycine added for the NcoI site)
Sequence (P53779 40-402): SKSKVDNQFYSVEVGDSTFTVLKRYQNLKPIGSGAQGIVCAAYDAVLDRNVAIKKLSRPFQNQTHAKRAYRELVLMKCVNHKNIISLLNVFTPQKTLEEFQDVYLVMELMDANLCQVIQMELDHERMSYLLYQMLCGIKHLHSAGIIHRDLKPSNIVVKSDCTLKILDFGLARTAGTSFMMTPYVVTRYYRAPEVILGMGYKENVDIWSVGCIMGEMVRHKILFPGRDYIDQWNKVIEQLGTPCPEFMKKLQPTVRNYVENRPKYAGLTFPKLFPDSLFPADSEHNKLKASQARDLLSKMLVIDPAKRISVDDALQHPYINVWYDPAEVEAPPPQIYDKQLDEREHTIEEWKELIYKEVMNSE
PROTOCOL NOTES: JNK inhibition assay: spectrophotometric coupled-enzyme assay with activated JNK3
STATED CONDITIONS: activated JNK3 10 nM, 10 μM ATP, 200 μM EGF receptor peptide, 30° C., competitive inhibition model
# Ki values compiled below

The following compounds have reported results that may help.
>>> print(df.to_string())
                            compound_smiles  experimental_readout  value_measured
0  O=C(Nc1ccc2c(c1)N(Cc1cc(F)cc3c1OCOC3)C(=O)/C2=N\O)c1ccc(Cl)c(Cl)c1                    Ki       ≥ 1000 nM
1  C[C@H](NC(=O)OCC1c2ccccc2-c2ccccc21)C(=O)Nc1ccc2c(c1)N(Cc1cc(F)cc3c1OCOC3)C(=O)/C2=N\O                    Ki       ≥ 1000 nM
2  Cc1ccc(CN2C(=O)/C(=N\O)c3cc(Br)ccc32)cc1                    Ki       ≥ 1000 nM
3  O=C1/C(=N\O)c2c(F)cc(F)cc2N1Cc1cc(F)cc2c1OCOC2                    Ki       < 1000 nM
4  O=C(Nc1ccc2c(c1)N(Cc1cc(F)cc3c1OCOC3)C(=O)/C2=N\O)c1cccc(Cl)c1                    Ki       < 1000 nM

Consider the compound shown here: `CC(C)CC(=O)Nc1ccc2c(c1)N(Cc1cc(F)cc3c1OCOC3)C(=O)/C2=N\O` What is its recorded Ki?
< 1000 nM

Please look up its Ki: `Cc1cc(C)c2c(c1)/C(=N/O)C(=O)N2Cc1ccccn1`
≥ 1000 nM

Value lookup for Ki; key = `C[Si](C)(C)C#Cc1cccc2c1/C(=N/O)C(=O)N2Cc1cc(F)cc2c1OCOC2`
≥ 1000 nM

Suppose we examine the compound `COC(=O)c1cccc(CN2C(=O)/C(=N/O)c3ccc(CBr)cc32)c1` ; what Ki value has been reported?
< 1000 nM

###

SYSTEM NAME: JNK3 (Homo sapiens)
Construct: One such construct encodes amino acid residues Ser40-Glu402 of JNK3α1 and is preceded by Met and Gly residues; Met-Gly (initiation methionine plus glycine added for the NcoI site)
PROTOCOL NOTES: JNK inhibition assay: spectrophotometric coupled-enzyme assay with activated JNK3
STATED CONDITIONS: activated JNK3 10 nM, 10 μM ATP, 200 μM EGF receptor peptide, 30° C., competitive inhibition model
Protocol: A BLAST search of the EST database using the published JNK3α1 cDNA as a query identified an EST clone (#632588) that contained the entire coding sequence for human JNK3α1. […] Compounds were assayed for the inhibition of JNK3 by a spectrophotometric coupled-enzyme assay. […] The decrease of absorbance at 340 nm was monitored as a function of time. […]
pKi: −log10 of the molar value.
Each entry below lists one item and its recorded pKi value.

Solved entries:
                                   molecule  value_measured
0  COc1ccc2c(CN3C(=O)/C(=N/O)c4ccc(-c5ccsc5)cc43)cc(=O)oc2c1          ≤ 6.00
1  O=C1/C(=N\O)c2c(-c3ccc(F)cc3)cccc2N1Cc1cc(F)cc2c1OCOC2          ≤ 6.00
2  CS(=O)(=O)c1ccc(CN2C(=O)/C(=N\O)c3cc(F)ccc32)cc1          ≤ 6.00
3  Nc1cccc(-c2ccc3c(c2)/C(=N/O)C(=O)N3Cc2cc(F)cc3c2OCOC3)c1          ≤ 6.00
4  CC(C)C(=O)Nc1ccc2c(c1)N(Cc1cc(F)cc3c1OCOC3)C(=O)/C2=N\O          > 6.00
5  O=C(O)c1cccc2c1/C(=N/O)C(=O)N2Cc1cc(F)cc2c1OCOC2          ≤ 6.00
6  COc1ccccc1CNC(=O)c1ccc2c(c1)N(Cc1cc(F)cc3c1OCOC3)C(=O)/C2=N\O          ≤ 6.00
7  O=C(Nc1ccc2c(c1)N(Cc1cc(F)cc3c1OCOC3)C(=O)/C2=N\O)c1csc(C2COc3ccccc3O2)n1 (stereo not shown)          ≤ 6.00

Record request: pKi value, item `Cc1ccc2c(c1)N(Cc1cc(F)cc3c1OCOC3)C(=O)/C2=N\O`
> 6.00

Requested field: pKi. Item: `COC(=O)CCCN1C(=O)/C(=N/O)c2ccc(-c3ccsc3)cc21`
≤ 6.00

Which pKi reading was recorded for the molecule CCC(NC(=O)c1ccc2c(c1)N(Cc1cc(F)cc3c1OCOC3)C(=O)/C2=N\O)c1ccccc1 (stereo not shown) ?
≤ 6.00

Look up pKi for this molecule: `COc1ccc(-c2ccc3c(c2)N(Cc2cc(F)cc4c2OCOC4)C(=O)/C3=N\O)cc1`
≤ 6.00

Report pKi for `COc1cc(CN2C(=O)/C(=N\O)c3cc(NC(=O)CCc4ccccc4)ccc32)cc(OC)c1` please.
≤ 6.00

Returns the measured pKi for the input molecule. Input: `O=C(c1ccc2c(c1)/C(=N\O)C(=O)N2Cc1cc(F)cc2c1OCOC2)c1cccc(Cl)c1Cl`
> 6.00

Consider the molecule shown here: `COc1ccc(CCNC(=O)c2ccc3c(c2)N(Cc2cc(F)cc4c2OCOC4)C(=O)/C3=N\O)cc1OC` What is its recorded pKi?
≤ 6.00

// pKi lookup, key: `O=C1/C(=N\O)c2ccc(-c3ccccc3)cc2N1CC1OCCO1`
≤ 6.00

I am curious: what pKi value has been reported for `O=C1/C(=N\O)c2ccccc2N1Cc1cccc(F)c1` ?
≤ 6.00

Which pKi is reported for this molecule? `O=C1/C(=N\O)c2c(Br)cccc2N1Cc1cc(F)cc2c1OCOC2`
> 6.00

Quick one: pKi of `CC(C)CCNC(=O)c1ccc2c(c1)N(Cc1cc(F)cc3c1OCOC3)C(=O)/C2=N\O` ?
≤ 6.00

###

SYSTEM NAME: JNK3 (Homo sapiens, UniProt P53779)
Construct: One such construct encodes amino acid residues Ser40-Glu402 of JNK3α1 and is preceded by Met and Gly residues; Met-Gly (initiation methionine plus glycine added for the NcoI site)
PROTOCOL NOTES: JNK inhibition assay: spectrophotometric coupled-enzyme assay with activated JNK3
STATED CONDITIONS: activated JNK3 10 nM, 10 μM ATP, 200 μM EGF receptor peptide, 30° C., competitive inhibition model
Listed here are molecules together with their documented Ki.

Example cases with answers are listed next.
                                   molecule                          system_name  value_measured
0  Nc1ccc2c(c1)/C(=N/O)C(=O)N2Cc1cc(F)cc2c1OCOC2 [Compound 285]  JNK3 (Homo sapiens, UniProt P53779)       ≥ 1000 nM
1  O=C(c1ccc2c(c1)N(Cc1cc(F)cc3c1OCOC3)C(=O)/C2=N\O)N1CCOCC1 [Compound 228]  JNK3 (Homo sapiens, UniProt P53779)       ≥ 1000 nM
2  O=C(NCCN1CCCC1)c1ccc2c(c1)N(Cc1cc(F)cc3c1OCOC3)C(=O)/C2=N\O [Compound 289]  JNK3 (Homo sapiens, UniProt P53779)       ≥ 1000 nM
3  O=Cc1ccccc1-c1ccc2c(c1)N(Cc1cc(F)cc3c1OCOC3)C(=O)/C2=N\O [Compound 315]  JNK3 (Homo sapiens, UniProt P53779)       < 1000 nM
4  O=C1/C(=N\O)c2cc(Cl)ccc2N1Cc1cccc(Oc2ccccc2)c1 [Compound 73]  JNK3 (Homo sapiens, UniProt P53779)       ≥ 1000 nM

Quick one: Ki for Cc1ccc2c(c1)/C(=N/O)C(=O)N2Cc1cccc(C(F)(F)F)c1 [Compound 1] ?
≥ 1000 nM

Could you tell me which Ki is on file for COc1cccc(C(=O)Nc2ccc3c(c2)N(Cc2cc(F)cc4c2OCOC4)C(=O)/C3=N\O)c1 [Compound 250] ?
< 1000 nM

Data provenance: patent US7612065B2
